// reported pKd for each item listed
# measuredOn: human Siglec-2/CD22 protein (Homo sapiens)
# Sequence (P20273 20-847): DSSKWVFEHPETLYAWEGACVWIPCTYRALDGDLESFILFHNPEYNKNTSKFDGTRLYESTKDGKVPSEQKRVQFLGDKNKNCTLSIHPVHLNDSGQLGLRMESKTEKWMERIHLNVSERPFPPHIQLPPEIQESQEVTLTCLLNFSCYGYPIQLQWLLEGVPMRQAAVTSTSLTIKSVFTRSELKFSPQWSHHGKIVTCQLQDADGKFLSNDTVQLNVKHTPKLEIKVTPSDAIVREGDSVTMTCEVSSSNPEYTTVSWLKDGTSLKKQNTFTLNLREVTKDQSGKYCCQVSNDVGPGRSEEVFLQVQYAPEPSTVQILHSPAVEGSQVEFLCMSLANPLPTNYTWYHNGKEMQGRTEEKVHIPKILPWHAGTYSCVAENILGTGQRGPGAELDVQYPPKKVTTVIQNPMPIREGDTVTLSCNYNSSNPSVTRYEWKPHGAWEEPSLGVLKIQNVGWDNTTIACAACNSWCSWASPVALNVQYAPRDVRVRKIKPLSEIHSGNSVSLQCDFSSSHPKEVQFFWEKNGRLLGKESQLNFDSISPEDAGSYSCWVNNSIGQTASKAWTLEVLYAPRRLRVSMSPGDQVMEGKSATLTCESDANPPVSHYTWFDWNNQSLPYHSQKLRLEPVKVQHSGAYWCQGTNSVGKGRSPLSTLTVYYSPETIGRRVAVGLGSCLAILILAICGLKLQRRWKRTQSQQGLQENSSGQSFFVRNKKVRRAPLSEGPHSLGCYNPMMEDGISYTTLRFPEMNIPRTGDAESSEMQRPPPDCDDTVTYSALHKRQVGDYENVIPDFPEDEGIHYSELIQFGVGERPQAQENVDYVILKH
# protocolDetails: SPR binding affinity to human CD22
# appliedConditions: steady-state analysis
pKd: −log10 of the molar value.
propertyLabel: pKd

- molecule: "C#CCOCCCCCCO[C@]1(C(=O)O)C[C@H](O)[C@@H](NC(=O)CO)[C@H]([C@H](O)[C@H](O)CNC(=O)Cc2ccc(N3CCC(O)CC3)cc2)O1 [Compound 194]"
  experimentalResult: "5.00 to 6.00"
- molecule: "C#CCOCCOCCO[C@]1(C(=O)O)C[C@H](O)[C@@H](NC(=O)CO)[C@H]([C@H](O)[C@H](O)CNC(=O)Cc2ccc(-c3ccccc3O)cc2)O1 [Compound 68]"
  experimentalResult: "> 6.00"
- molecule: "C#CCOCCCCCCO[C@]1(C(=O)O)C[C@H](O)[C@@H](NC(=O)CO)[C@H]([C@H](O)[C@H](O)CNC(=O)Cc2cccc(OC(F)(F)F)c2)O1 [Compound 155]"
  experimentalResult: "> 6.00"
- molecule: "C#CCN(CC(=O)O)C(=O)CCCCCO[C@]1(C(=O)O)C[C@H](O)[C@@H](NC(=O)CO)[C@H]([C@H](O)[C@H](O)CNC(=O)Cc2ccc(Cl)cc2)O1 [Compound 100]"
  experimentalResult: "> 6.00"
- molecule: "C#CCOCCNC(=O)CCCCCCO[C@]1(C(=O)O)C[C@H](O)[C@@H](NC(=O)CO)[C@H]([C@H](O)[C@H](O)CNC(=O)Cc2ccc(C(F)F)cc2)O1 [Compound 213]"
  experimentalResult: "> 6.00"

---

# measuredOn: human Siglec-2/CD22 protein (Homo sapiens)
# protocolDetails: SPR binding affinity to human CD22
# appliedConditions: steady-state analysis

- smilesStructure: "C#CCOCCOCCO[C@]1(C(=O)O)C[C@H](O)[C@@H](NC(=O)CO)[C@H]([C@H](O)[C@H](O)CNC(=O)c2cccc(O)c2)O1"
  Kd: "1 to 10 µM"
- smilesStructure: "C#CCOCCOCCO[C@]1(C(=O)O)C[C@H](O)[C@@H](NC(=O)CO)[C@H]([C@H](O)[C@H](O)CNC(=O)Cc2ccc3c(c2)CC(=O)N3)O1"
  Kd: "1 to 10 µM"
- smilesStructure: "C#CCOCCOCCNc1c(NCCCCCCO[C@]2(C(=O)O)C[C@H](O)[C@@H](NC(=O)CO)[C@H]([C@H](O)[C@H](O)CNC(=O)c3cccc(F)c3)O2)c(=O)c1=O"
  Kd: "1 to 10 µM"

---

# measuredOn: cynomolgus Siglec-2/CD22 (Macaca fascicularis)
# Sequence (A0A2K5WCZ6 entry or part of it): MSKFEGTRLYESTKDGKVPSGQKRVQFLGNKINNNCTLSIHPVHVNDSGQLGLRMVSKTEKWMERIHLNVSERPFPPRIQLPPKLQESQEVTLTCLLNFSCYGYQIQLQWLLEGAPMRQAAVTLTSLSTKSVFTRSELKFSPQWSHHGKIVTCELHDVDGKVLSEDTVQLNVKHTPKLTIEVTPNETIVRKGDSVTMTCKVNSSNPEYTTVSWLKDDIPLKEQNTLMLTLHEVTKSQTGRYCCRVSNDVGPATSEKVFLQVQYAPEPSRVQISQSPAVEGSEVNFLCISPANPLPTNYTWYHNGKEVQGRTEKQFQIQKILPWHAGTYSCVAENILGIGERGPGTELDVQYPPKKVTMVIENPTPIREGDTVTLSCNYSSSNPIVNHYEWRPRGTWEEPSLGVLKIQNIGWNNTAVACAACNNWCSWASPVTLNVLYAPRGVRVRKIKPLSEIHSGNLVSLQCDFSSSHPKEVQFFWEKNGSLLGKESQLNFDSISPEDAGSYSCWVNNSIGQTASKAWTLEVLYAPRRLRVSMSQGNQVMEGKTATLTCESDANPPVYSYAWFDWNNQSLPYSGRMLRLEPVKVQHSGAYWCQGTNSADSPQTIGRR
# protocolDetails: biochemical
# appliedConditions: SPR, steady-state analysis; read-out: Affinity cyno CD22

- smilesStructure: "C#CCOCCOCCO[C@]1(C(=O)O)C[C@H](O)[C@@H](NC(=O)CO)[C@H]([C@H](O)[C@H](O)CNC(=O)Cc2ccc3c(c2)NC(=O)C3)O1"
  Kd: "> 10000 nM"
- smilesStructure: "C#CCCOc1cccc(CO[C@]2(C(=O)O)C[C@H](O)[C@@H](NC(=O)CO)[C@H]([C@H](O)[C@H](O)CNC(=O)Cc3ccc(-c4ccccc4)cc3)O2)c1"
  Kd: "< 1000 nM"
- smilesStructure: "C#CCCOc1ccc(CO[C@]2(C(=O)O)C[C@H](O)[C@@H](NC(=O)CO)[C@H]([C@H](O)[C@H](O)CN)O2)cc1"
  Kd: "> 10000 nM"
- smilesStructure: "C#CCOCCCCCCO[C@]1(C(=O)O)C[C@H](O)[C@@H](NC(=O)NC2CC2)[C@H]([C@H](O)[C@H](O)CNC(=O)Cc2ccc(Cl)cc2)O1"
  Kd: "1000 to 10000 nM"
- smilesStructure: "C#Cc1ccc(CO[C@]2(C(=O)O)C[C@H](O)[C@@H](NC(=O)CO)[C@H]([C@H](O)[C@H](O)CNC(=O)Cc3ccc(Cl)cc3)O2)cc1"
  Kd: "< 1000 nM"
- smilesStructure: "CC(=O)NCCOCCOCCOCCOCCC(=O)NCCCCCCO[C@]1(C(=O)O)C[C@H](O)[C@@H](NC(=O)CO)[C@H]([C@H](O)[C@H](O)CNC(=O)Cc2ccc(-c3ccccc3)cc2)O1"
  Kd: "< 1000 nM"
- smilesStructure: "CC(=O)NCCOCCOCCOCCOCCNC(=O)CCCCCCO[C@]1(C(=O)O)C[C@H](O)[C@@H](NC(=O)CO)[C@H]([C@H](O)[C@H](O)CNC(=O)Cc2ccc(Cl)cc2)O1"
  Kd: "< 1000 nM"
- smilesStructure: "CC(=O)NCCOCCOCCOCCOCCn1cc(CCCCCCO[C@]2(C(=O)O)C[C@H](O)[C@@H](NC(C)=O)[C@H]([C@H](O)[C@H](O)CNC(=O)c3cccc(Cl)c3)O2)nn1"
  Kd: "1000 to 10000 nM"
- smilesStructure: "C#Cc1ccc(CO[C@]2(C(=O)O)C[C@H](O)[C@@H](NC(=O)CO)[C@H]([C@H](O)[C@H](O)CNC(=O)Cc3cccc(O)c3)O2)cc1"
  Kd: "< 1000 nM"
- smilesStructure: "C#CCOCCOCCOCCOCCC(=O)NCCOCCOCCO[C@]1(C(=O)O)C[C@H](O)[C@@H](NC(=O)CO)[C@H]([C@H](O)[C@H](O)CNC(=O)Cc2ccc(Cl)cc2)O1"
  Kd: "< 1000 nM"
- smilesStructure: "C#CCOc1cccc(-c2cn([C@]3(C(=O)O)C[C@H](O)[C@@H](NC(=O)CO)[C@H]([C@H](O)[C@H](O)CNC(=O)Cc4ccc(-c5ccc(O)cc5)cc4)O3)nn2)c1"
  Kd: "1000 to 10000 nM"
- smilesStructure: "C#CCOC[C@H](O)[C@@H](O)CO[C@]1(C(=O)O)C[C@H](O)[C@@H](NC(=O)CO)[C@H]([C@H](O)[C@H](O)CNC(=O)Cc2ccc(Cl)cc2)O1"
  Kd: "1000 to 10000 nM"
- smilesStructure: "CCCCCC[C@H](O)[C@]1(C(=O)O)C[C@H](O)[C@@H](NC(=O)CO)[C@H]([C@H](O)[C@H](O)CNC(=O)Cc2ccc(Cl)cc2)O1"
  Kd: "< 1000 nM"
- smilesStructure: "C#CCOCCCCCCO[C@]1(C(=O)O)C[C@H](O)[C@@H](NC(=O)CO)[C@H]([C@H](O)[C@H](O)CNC(=O)Cc2ccc(C(F)(F)F)cc2)O1"
  Kd: "1000 to 10000 nM"
- smilesStructure: "CC(=O)NCCOCCOCCOCCOCCNC(=O)CCOCCO[C@]1(C(=O)O)C[C@H](O)[C@@H](NC(=O)CO)[C@H]([C@H](O)[C@H](O)CNC(=O)Cc2ccc(Cl)cc2)O1"
  Kd: "1000 to 10000 nM"
- smilesStructure: "C#CCOCCOCCO[C@]1(C(=O)O)C[C@H](O)[C@@H](NC(=O)CO)[C@H]([C@H](O)[C@H](O)CNC(=O)Cc2ccccc2O)O1"
  Kd: "> 10000 nM"
- smilesStructure: "C#CCOCCOCCO[C@]1(C(=O)O)C[C@H](O)[C@@H](NC(=O)CO)[C@H]([C@H](O)[C@H](O)CNC(=O)c2ccc(Cl)cc2)O1"
  Kd: "1000 to 10000 nM"
- smilesStructure: "C#CCCOc1ccc(CS[C@]2(C(=O)O)C[C@H](O)[C@@H](NC(=O)CO)[C@H]([C@H](O)[C@H](O)CNC(=O)Cc3cccc(Cl)c3)O2)cc1"
  Kd: "< 1000 nM"
- smilesStructure: "C#CCOCCNC(=O)CCCCCCO[C@]1(C(=O)O)C[C@H](O)[C@@H](NC(=O)CO)[C@H]([C@H](O)[C@H](O)CNC(=O)Cc2ccc(Cl)c(F)c2)O1"
  Kd: "< 1000 nM"
- smilesStructure: "C#CCNc1c(NCCCCCCO[C@]2(C(=O)O)C[C@H](O)[C@@H](NC(=O)CO)[C@H]([C@H](O)[C@H](O)CNC(=O)Cc3ccc(C(F)F)cc3)O2)c(=O)c1=O"
  Kd: "< 1000 nM"
- smilesStructure: "C#CCCOc1ccc(CO[C@]2(C(=O)O)C[C@H](O)[C@@H](NC(=O)CO)[C@H]([C@H](O)[C@H](O)CNC(=O)Cc3ccc4nn[nH]c4c3)O2)cc1"
  Kd: "1000 to 10000 nM"
